System: kochia (Kochia scoparia)
Assay: Test A preemergence, visual plant response rating
Format: in vivo
Details: 125 g ai/ha Preemergence; approx. 10 days
endpointLabel: Kochia plant response rating (0 to 100 scale)
Numbers only.

Solved cases below.
compound	recordedResult
CO/N=C(/c1cccc(Cl)c1)c1c(O)c(C)nn(C)c1=O [Compound 11]	10
CCO/N=C(\c1cccc(Cl)c1)c1c(O)c(C)nn(C)c1=O [Compound 8]	10
CO/N=C(/c1c(O)c(C)nn(C)c1=O)c1cccc2ccccc12 [Compound 31]	10

Batch: Kochia plant response rating (0 to 100 scale) for all items listed.
1. CCO/N=C(/c1ccc(C)cc1)c1c(O)c(C)nn(C)c1=O [Compound 16]
2. CO/N=C(/c1cccc(C)c1)c1c(O)c(C2CC2)nn(C)c1=O [Compound 28]

1. 0
2. 0

Sourced from patent US20210045385A1
